All values here come from paper PMC8330100.

Assay: Mannitol permeability assay (basolateral to apical) across hCMEC/D3 monolayers
Assay type: in vitro ADME, human
Details: human, hCMEC/D3-WT; 12-well, Corning #3460, PET, 4·10^6 pores/cm²
Readout Kind: Papp at 180 min, 1.85 kBq/mL (×10⁻⁶ cm/s)
Dear colleague, please return just the value in ×10⁻⁶ cm/s, with no unit written.

[ask] If you can, please state the reported Papp at 180 min, 1.85 kBq/mL value of OC[C@@H](O)[C@@H](O)[C@H](O)[C@H](O)CO [Mannitol, D-mannitol] .
[reply] 13.5

---

Assay: Mannitol permeability assay (basolateral to apical) across hCMEC/D3 monolayers
Format: in vitro ADME, human
Conditions: human, hCMEC/D3-WT; 12-well, Sarstedt #83.3931.040, PET, 1·10^8 pores/cm²
Readout Kind: Papp at 180 min, 1.85 kBq/mL (×10⁻⁶ cm/s)
Dear colleague, please return just the value in ×10⁻⁶ cm/s, with no unit written.

[ask] If you can, please state the reported Papp at 180 min, 1.85 kBq/mL value of OC[C@@H](O)[C@@H](O)[C@H](O)[C@H](O)CO [Mannitol, D-mannitol] .
[reply] 19.8

---

Experiment: Mannitol permeability assay (basolateral to apical) across RBE4 monolayers
Type: in vitro ADME, rat
Conditions: rat, RBE4-WT; 12-well, Sarstedt #83.3931.040, PET, 1·10^8 pores/cm²
Procedure: Incubation was performed under cell culture conditions (37 °C, 5% CO2, humidified atmosphere) on a horizontal shaker (55 rpm). […] Basolateral volume was adjusted after each sampling to compensate for changes in the hydrostatic pressure. TEER measurements before and after the assay were carried out to confirm barrier integrity. The apparent permeability coefficients (Papp) in nm per second were calculated according to Artursson. Each experiment was performed in at least three replicates. […]
Readout Kind: Papp at 180 min, 1.85 kBq/mL (×10⁻⁶ cm/s)
Dear colleague, please return just the value in ×10⁻⁶ cm/s, with no unit written.

[ask] If you can, please state the reported Papp at 180 min, 1.85 kBq/mL value of "OC[C@@H](O)[C@@H](O)[C@H](O)[C@H](O)CO" .
[reply] 21

---

Assay: Mannitol permeability assay (basolateral to apical) across hCMEC/D3 monolayers
Type: in vitro ADME, human
Details: human, hCMEC/D3-MDR1 + dox; 7 days after seeding; basolateral to apical; ThinCert 12-well, 0.4 µm, PET
Readout Kind: Papp at 180 min, 1.85 kBq/mL (nm/s)
Dear colleague, please return just the value in nm/s, with no unit written.

[ask] If you can, please state the reported Papp at 180 min, 1.85 kBq/mL value of OC[C@@H](O)[C@@H](O)[C@H](O)[C@H](O)CO [Mannitol, D-mannitol] .
[reply] 56.6

---

Experiment: Mannitol permeability assay (basolateral to apical) across RBE4 monolayers
Type: in vitro ADME, rat
Details: rat, RBE4-WT; 12-well, Corning #3460, PET, 4·10^6 pores/cm²
Readout Kind: Papp at 180 min, 1.85 kBq/mL (×10⁻⁶ cm/s)
Dear colleague, please return just the value in ×10⁻⁶ cm/s, with no unit written.

[ask] If you can, please state the reported Papp at 180 min, 1.85 kBq/mL value of OC[C@@H](O)[C@@H](O)[C@H](O)[C@H](O)CO [Mannitol, D-mannitol] .
[reply] 15.4

---

Experiment: Mannitol permeability assay (basolateral to apical) across RBE4 monolayers
Format: in vitro ADME, rat
Conditions: rat, RBE4-MDR1 + dox; 7 days after seeding; basolateral to apical; ThinCert 12-well, 0.4 µm, PET
Readout Kind: Papp at 180 min, 1.85 kBq/mL (×10⁻⁶ cm/s)
Dear colleague, please return just the value in ×10⁻⁶ cm/s, with no unit written.

[ask] If you can, please state the reported Papp at 180 min, 1.85 kBq/mL value of OC[C@@H](O)[C@@H](O)[C@H](O)[C@H](O)CO [Mannitol, D-mannitol] .
[reply] 6.07

---

Experiment: Mannitol permeability assay (basolateral to apical) across RBE4 monolayers
Assay type: in vitro ADME, rat
Settings: rat, RBE4-WT; 7 days after seeding; basolateral to apical; ThinCert (Greiner #665641) 12-well, 0.4 µm, PET, 2·10^6 pores/cm²
Readout Kind: Papp at 180 min, 1.85 kBq/mL

[ask] If you can, please state the reported Papp at 180 min, 1.85 kBq/mL value of OC[C@@H](O)[C@@H](O)[C@H](O)[C@H](O)CO [Mannitol, D-mannitol] .
[reply] 5.96 ×10⁻⁶ cm/s
